# Test system: peripheral blood mononuclear cell (PBMC)
# experiment: Peripheral blood mononuclear cell assay
# condition-context: read-out: PBMC EC50 TNF-α; compounds 1h, washed, 15 hour incubation; tumor necrosis factor-alpha level in medium; average of one to four donors
Entries annotated with measured pEC50
# log scale: pEC50 equals minus log10 of the concentration in mol/L

- CC(C)(C)C(=O)OCOP1(=O)CO[C@H]2[C@@H](F)[C@H](n3cnc4c(N)ncnc43)O[C@@H]2COP(=O)(OCOC(=O)C(C)(C)C)O[C@@H]2[C@H](F)[C@@H](CO1)O[C@H]2n1cnc2c(=O)[nH]cnc21 (single isomer, unassigned) [Compound 77a]: 5.85
- CCCCCC(=O)Oc1ccc(C(=O)Oc2ccc(CSP3(=O)OC[C@H]4O[C@@H](n5cnc6c(N)ncnc65)[C@H](F)[C@@H]4OCP(=O)(O)OC[C@H]4O[C@@H](n5cnc6c(=O)[nH]c(N)nc65)[C@H](O3)[C@@H]4F)cc2)cc1 (single isomer, unassigned) [Compound 40b]: 4.98
- CCCCCCCCCCCC(=O)OCSP1(=O)CO[C@H]2[C@@H](F)[C@H](n3cnc4c(N)ncnc43)O[C@@H]2COP(=O)(SCOC(=O)CCCCCCCCCCC)O[C@@H]2[C@H](F)[C@@H](CO1)O[C@H]2n1cnc2c(=O)[nH]c(N)nc21 (single isomer, unassigned) [Compound 78c]: 5.52
- CCCCCCCCCCCC(=O)OCSP1(=O)OC[C@H]2O[C@@H](n3cnc4c(N)ncnc43)[C@H](F)[C@@H]2OCP(=O)(O)OC[C@H]2O[C@@H](n3cnc4c(=O)[nH]cnc43)[C@H](O1)[C@@H]2F (single isomer, unassigned) [Compound 56b]: 5.70
- CC(C)(C)C(=O)OCOP1(=O)CO[C@H]2[C@@H](F)[C@H](n3cnc4c(N)ncnc43)O[C@@H]2COP(=O)(OCOC(=O)C(C)(C)C)O[C@@H]2[C@H](F)[C@@H](CO1)O[C@H]2n1cnc2c(=O)[nH]cnc21 (single isomer, unassigned) [Compound 77b]: 5.44
- Nc1nc2c(ncn2[C@@H]2O[C@@H]3COP(=O)(O)CO[C@H]4[C@@H](F)[C@H](n5cnc6c(N)ncnc65)O[C@@H]4COP(=O)(S)O[C@@H]2[C@@H]3F)c(=O)[nH]1 (single isomer, unassigned) [Compound 11b]: 3.77
- CCCCCCCCCCCCCCOC(=O)OCSP1(=O)OC[C@H]2O[C@@H](n3cnc4c(N)ncnc43)[C@H](F)[C@@H]2OCP(=O)(O)OC[C@H]2O[C@@H](n3cnc4c(=O)[nH]cnc43)[C@H](O1)[C@@H]2F (some centres unmarked) [Compound 72b]: 5.80

Consider the additional compound presented here.
pEC50 of CCCCCCCCCCCCOC(=O)OCSP1(=O)OC[C@H]2O[C@@H](n3cnc4c(N)ncnc43)[C@H](F)[C@@H]2OCP(=O)(O)OC[C@H]2O[C@@H](n3cnc4c(=O)[nH]c(N)nc43)[C@H](O1)[C@@H]2F (some centres unmarked) [Compound 59b] on peripheral blood mononuclear cell (PBMC)?
5.68
